Data credit: ChEMBL document CHEMBL5614382

Molecular target: UniProt:Q03145
Sequence (Q03145 whole entry): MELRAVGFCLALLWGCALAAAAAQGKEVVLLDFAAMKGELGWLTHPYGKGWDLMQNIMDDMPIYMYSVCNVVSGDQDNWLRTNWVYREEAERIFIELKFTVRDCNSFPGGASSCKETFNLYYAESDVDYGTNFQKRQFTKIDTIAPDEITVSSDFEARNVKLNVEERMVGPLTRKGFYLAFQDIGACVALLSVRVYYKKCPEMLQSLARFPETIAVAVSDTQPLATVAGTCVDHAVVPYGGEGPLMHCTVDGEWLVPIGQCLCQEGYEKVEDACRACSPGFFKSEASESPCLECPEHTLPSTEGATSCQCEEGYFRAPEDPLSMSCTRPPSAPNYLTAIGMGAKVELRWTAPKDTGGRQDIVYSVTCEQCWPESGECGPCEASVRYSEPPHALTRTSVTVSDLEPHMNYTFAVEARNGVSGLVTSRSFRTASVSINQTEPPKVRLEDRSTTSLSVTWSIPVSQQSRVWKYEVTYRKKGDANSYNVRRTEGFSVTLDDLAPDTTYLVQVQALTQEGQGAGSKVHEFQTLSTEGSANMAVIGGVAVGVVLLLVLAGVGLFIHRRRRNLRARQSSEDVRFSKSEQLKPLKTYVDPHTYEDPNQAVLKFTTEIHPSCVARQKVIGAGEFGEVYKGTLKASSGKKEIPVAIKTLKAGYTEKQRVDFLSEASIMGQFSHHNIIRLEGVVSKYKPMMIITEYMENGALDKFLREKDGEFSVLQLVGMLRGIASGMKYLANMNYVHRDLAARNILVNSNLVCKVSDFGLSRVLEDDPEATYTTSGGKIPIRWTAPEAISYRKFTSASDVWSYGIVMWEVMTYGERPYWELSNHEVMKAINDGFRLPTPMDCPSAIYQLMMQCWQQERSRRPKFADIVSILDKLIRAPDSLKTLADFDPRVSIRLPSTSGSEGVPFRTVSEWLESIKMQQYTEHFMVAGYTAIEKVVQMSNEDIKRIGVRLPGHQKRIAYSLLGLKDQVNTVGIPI
Experiment: Displacement of biotinylated Fc-tagged ephrin-A1 from C/N-terminal 6-His tagged mouse recombinant EphA2 (Ala22 to Ala535 residues) preincubated for 1 hr followed by ephrin-A1-Fc addition and measured after 4 to 5 hrs by ELISA assay
pIC50: −log10 of the molar value.
The threshold is inclusive: pIC50 of exactly 5 counts as TRUE; values below receive FALSE.

compound.structure.string: C[C@H](CCC(=O)N[C@H](CC(=O)O)Cc1cn(S(=O)(=O)c2cccnc2)c2ccccc12)[C@H]1CC[C@H]2[C@@H]3CC=C4C[C@@H](O)CC[C@]4(C)[C@H]3CC[C@]12C
label: FALSE

compound.structure.string: C[C@H](CCC(=O)N[C@H](CC(=O)O)Cc1cn(S(=O)(=O)c2cccc(C#N)c2)c2ccccc12)[C@H]1CC[C@H]2[C@@H]3CC=C4C[C@@H](O)CC[C@]4(C)[C@H]3CC[C@]12C
label: FALSE

compound.structure.string: C[C@H](CCC(=O)N[C@H](CC(=O)O)Cc1cn(S(=O)(=O)c2cccc([N+](=O)[O-])c2)c2ccccc12)[C@H]1CC[C@H]2[C@@H]3CC=C4C[C@@H](O)CC[C@]4(C)[C@H]3CC[C@]12C
label: FALSE

compound.structure.string: C[C@H](CCC(=O)N[C@H](CC(=O)O)Cc1cn(S(=O)(=O)c2ccc([N+](=O)[O-])cc2)c2ccccc12)[C@H]1CC[C@H]2[C@@H]3CC=C4C[C@@H](O)CC[C@]4(C)[C@H]3CC[C@]12C
label: TRUE

compound.structure.string: C[C@H](CCC(=O)N[C@H](CC(=O)O)Cc1cn(S(=O)(=O)c2ccoc2)c2ccccc12)[C@H]1CC[C@H]2[C@@H]3CC=C4C[C@@H](O)CC[C@]4(C)[C@H]3CC[C@]12C
label: TRUE

compound.structure.string: C[C@H](CCC(=O)N[C@H](CC(=O)O)Cc1cn(S(=O)(=O)c2cccc(F)c2)c2ccccc12)[C@H]1CC[C@H]2[C@@H]3CC=C4C[C@@H](O)CC[C@]4(C)[C@H]3CC[C@]12C
label: FALSE
